- Tested on: Low density cholesterol (Chl small) plaque particles
- ASSAY OVERVIEW: Mass spectroscopy proteomics, semi-quantitative binding affinity of serum proteins (plaqueproteome, Table 2)
- Design: species or system human
- TEST SETTINGS: higher number = stronger affinity
The following molecules are listed with their measured Semi-quantitative analysis of proteins binding to different plaque particles: Chl small values.
QUANTITY KIND: Semi-quantitative analysis of proteins binding to different plaque particles: Chl small

MOLECULE	MEASUREMENT
Apolipoprotein F (protein) SLPTEDCENEKEQAVHNVVQLLPGVGTFYNLGTALYYATQNCLGKARERGRDGAIDLGYDLLMTMAGMSGGPMGLAISAALKPALRSGVQQLIQYYQDQKDANISQPETTKEGLRAISDVSDLEETTTLASFISEVVSSAPYWGWAIIKSYDLDPGAGSLEI	1
Apolipoprotein A-IV (protein) EVSADQVATVMWDYFSQLSNNAKEAVEHLQKSELTQQLNALFQDKLGEVNTYAGDLQKKLVPFATELHERLAKDSEKLKEEIGKELEELRARLLPHANEVSQKIGDNLRELQQRLEPYADQLRTQVSTQAEQLRRQLTPYAQRMERVLRENADSLQASLRPHADELKAKIDQNVEELKGRLTPYADEFKVKIDQTVEELRRSLAPYAQDTQEKLNHQLEGLTFQMKKNAEELKARISASAEELRQRLAPLAEDVRGNLRGNTEGLQKSLAELGGHLDQQVEEFRRRVEPYGENFNKALVQQMEQLRQKLGPHAGDVEGHLSFLEKDLRDKVNSFFSTFKEKESQDKTLSLPELEQQQEQQQEQQQEQVQMLAPLES	9
